Cited source for all entries: ChEMBL document CHEMBL5038577

# Lookup of reported fold change (FC) keyed by entry
species on record: Homo sapiens; experiment: Selectivity for human GPR6 over human GRP3 assessed as fold change
Enter a number only.

Below: 3 compounds and their reported fold change (FC).
- Cc1cc2nc(NC(C)C)c(N3CCN(Cc4ccc(F)cc4F)CC3)nc2cn1: 5
- Fc1ccc(Cl)cc1CN1CCN(c2nc3cnccc3nc2NC2CC2)CC1: 638
- CC(C)Nc1nc2cc(C#N)ncc2nc1N1CCC(Oc2ccc(F)cc2F)CC1: 6

Note fold change (FC) for the compound shown: Cc1cc2nc(NC(C)C)c(N3CCC(Oc4ccc(F)cc4F)CC3)nc2cn1 13

Note fold change (FC) for the compound shown: Cc1cc2nc(NC3CC3)c(N3CCC(Oc4ccc(F)cc4F)CC3)nc2cn1 19

Note fold change (FC) for the compound shown: CCC(=O)N1CCc2nc(N3CCN(Cc4ccc(F)cc4F)CC3)c(NC(C)C)nc2C1 20

Note fold change (FC) for the compound shown: Cc1cc2nc(NC3CC3)c(N3CCN(Cc4ccc(F)cc4F)CC3)nc2cn1 14
